Target: recombinant N-terminal PMS2 (residues 1-365) (Homo sapiens, UniProt P54278)
Construct: recombinant N-terminal PMS2 (residues 1-365)
Sequence (P54278 1-365): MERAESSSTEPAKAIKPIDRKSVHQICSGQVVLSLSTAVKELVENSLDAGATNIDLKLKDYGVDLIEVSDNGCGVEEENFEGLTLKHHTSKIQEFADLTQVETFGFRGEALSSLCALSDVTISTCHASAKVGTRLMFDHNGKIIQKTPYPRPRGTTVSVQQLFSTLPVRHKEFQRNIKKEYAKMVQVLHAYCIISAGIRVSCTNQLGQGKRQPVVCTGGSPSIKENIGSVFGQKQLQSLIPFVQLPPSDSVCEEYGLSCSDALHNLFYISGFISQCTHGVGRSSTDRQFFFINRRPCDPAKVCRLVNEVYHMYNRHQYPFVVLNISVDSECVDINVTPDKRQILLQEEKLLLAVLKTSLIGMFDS
Experiment: Fluorescence Polarisation Assay for PMS2
Conditions: 10 nM N-terminal PMS2, 5 nM probe compound
PROPERTY MEASURED: IC50

SMILES INPUT	DATA VALUE
CN1CCC(Oc2ccc3c(c2)CN(C(=O)c2c(O)cc(F)cc2OCc2ccccc2)C3)CC1	1000 to 10000 nM
CN(C)CCOc1ccc2c(c1)CCN(C(=O)c1c(O)cc(C(F)F)cc1OCc1ccccc1)C2	100 to 1000 nM
CN1CCC(Oc2ccc3c(c2)CN(C(=O)c2c(O)cc(C(F)F)cc2OCc2ccccc2)C3)CC1	1000 to 10000 nM
CN1CC[C@H](Oc2ccc3c(c2)CN(C(=O)c2c(O)cc(C(F)F)cc2OCc2ccccc2)C3)C1	1000 to 10000 nM

[in] Note IC50 for the compound shown: `O=C(c1c(O)cc(C(F)F)cc1OCc1ccccc1)N1Cc2ccc(OC3CCNCC3)cc2C1`
[out] 1000 to 10000 nM

----------
biological target: recombinant N-terminal MLH1 (residues 15-340) (Homo sapiens, UniProt P40692); construct: recombinant N-terminal MLH1 (residues 15-340); assay: Fluorescence Polarisation Assay for MLH1; details: 100 nM N-terminal MLH1, 5 nM probe compound
pIC50: −log10 of the molar value.
Each item that follows carries a reported pIC50.

Study these solved cases before continuing.
MOLECULE	pIC50
N#Cc1cc(O)c(C(=O)N2CCc3cccnc32)c(OCc2ccccc2)c1 [Example 27.14]	5.00 to 6.00
N#Cc1cc(O)c(C(=O)N2Cc3cnc(N4CCOCC4)cc3C2)c(OCc2ccccc2)c1 [Example 27.8]	5.00 to 6.00
CN1CC[C@@H](Oc2ccc3c(c2)CN(C(=O)c2c(O)cc(C(F)F)cc2OCc2ccccc2)CC3)C1 [Example 4.67]	6.00 to 7.00

[in] Please give the documented pIC50 of CN1CC(Oc2ccc3c(c2)CN(C(=O)c2c(O)cc(C(F)F)cc2OCc2ccccc2)CC3)C1 [Example 4.69]
[out] 6.00 to 7.00

[in] Tell me its pIC50 given O=C(c1c(O)cc(C(F)F)cc1OCc1ccccc1)N1CCc2cccnc21 [Example 27.15] as the entry.
[out] 5.00 to 6.00

[in] Complete the entry with pIC50 for O=C1OCCC1Nc1cccc2c1CN(C(=O)c1c(O)cc(C(F)F)cc1OCc1ccccc1)C2 (stereo not drawn) [Example 4.16]
[out] 6.00 to 7.00

[in] Fill in reported pIC50 for this entry: CN1CCC(Oc2ccc3c(c2)CN(C(=O)c2c(O)cc(C(F)F)cc2OCC2CC2)C3)CC1 [Example 4.59]
[out] 6.00 to 7.00

[in] Could you please provide reported pIC50 for CN1CCC(Oc2ccc3c(c2)CN(C(=O)c2c(O)cc(C#N)cc2OCc2ccccc2)C3)CC1 [Example 10.33] ? Thanks!
[out] 6.00 to 7.00

[in] Please report pIC50 for the following molecule: CN(C)Cc1cc2c(c(N[C@H]3CCOC3)c1)CN(C(=O)c1c(O)cc(C(F)F)cc1OCc1ccccc1)CC2 [Example 4.21]
[out] > 7.00

[in] For the molecule N#Cc1cc(O)c(C(=O)N2Cc3cccc(N[C@@H]4CCOC4)c3C2)c(OCc2ccccc2)c1 [Example 12.3] , give its reported pIC50.
[out] 5.00 to 6.00

----------
Molecular target: recombinant N-terminal MLH1 (residues 15-340) (Homo sapiens)
Construct: recombinant N-terminal MLH1 (residues 15-340)
Sequence (P40692 15-340): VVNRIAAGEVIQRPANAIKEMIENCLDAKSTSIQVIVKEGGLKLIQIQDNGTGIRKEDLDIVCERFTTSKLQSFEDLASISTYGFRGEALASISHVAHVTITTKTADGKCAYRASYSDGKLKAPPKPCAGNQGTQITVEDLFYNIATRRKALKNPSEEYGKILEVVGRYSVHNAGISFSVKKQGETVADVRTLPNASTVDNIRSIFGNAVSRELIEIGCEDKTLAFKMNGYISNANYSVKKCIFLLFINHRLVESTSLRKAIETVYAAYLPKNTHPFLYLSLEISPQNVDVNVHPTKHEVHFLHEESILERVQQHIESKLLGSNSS
Test: Fluorescence Polarisation Assay for MLH1
Conditions: 100 nM N-terminal MLH1, 5 nM probe compound
Measured IC50, listed per entry.

[in] Name the recorded IC50 of the item `CC(=O)N1CCC[C@@H](Nc2cccc3c2CN(C(=O)c2c(O)cc(C#N)cc2OCc2ccccc2)C3)C1` in your answer.
[out] 1000 to 10000 nM

[in] Kindly indicate its recorded IC50. Item: `O=C(c1c(O)cc(C(F)(F)F)cc1OCc1ccccc1)N1Cc2cccc(N[C@H]3CCOC3)c2C1`
[out] 100 to 1000 nM

[in] Tell me its IC50 given N#Cc1cc(O)c(C(=O)N2Cc3cccc(NCC4CCOC4)c3C2)c(OCc2ccccc2)c1 (stereo not shown) as the entry.
[out] 1000 to 10000 nM

[in] Item `O=C(c1c(O)cc(C(F)F)cc1OCc1ccccc1)N1CCc2ccccc2C1` : provide IC50
[out] 1000 to 10000 nM

----------
biological target: recombinant N-terminal MLH1 (residues 15-340) (Homo sapiens, UniProt P40692); construct: recombinant N-terminal MLH1 (residues 15-340); test: Fluorescence Polarisation Assay for MLH1; conditions: 100 nM N-terminal MLH1, 5 nM probe compound
Listed here: items and their measured IC50.

MOLECULE	TARGET DESC	DATA VALUE
O=C(c1c(O)cc(C(F)F)cc1OCc1ccccn1)N1CCc2cccc(N[C@H]3CCOC3)c2C1	recombinant N-terminal MLH1 (residues 15-340) (Homo sapiens, UniProt P40692)	100 to 1000 nM
N#Cc1cc(O)c(C(=O)N2Cc3ccccc3C2)c(OCc2ccccc2)c1	recombinant N-terminal MLH1 (residues 15-340) (Homo sapiens, UniProt P40692)	1000 to 10000 nM

[in] State its IC50 for this molecule: `CC(=O)N1CCC(Nc2cccc3c2CN(C(=O)c2c(O)cc(C#N)cc2OCc2ccccc2)C3)CC1`
[out] 100 to 1000 nM

[in] Identify IC50 associated with the molecule `O=C(c1c(O)cc(C(F)F)cc1OCc1ccccc1)N1CCc2ncccc21`
[out] 1000 to 10000 nM

[in] Find the measured IC50 of N#Cc1cc(O)c(C(=O)N2CCc3ccc(NC4CCOC4)cc32)c(OCc2ccccc2)c1 (stereo not shown) and report it.
[out] 1000 to 10000 nM

[in] Give the value of IC50 reported for the following: `CN(C)CCOc1ccc2c(c1)CN(C(=O)c1c(O)cc(C(F)F)cc1OCc1ccccc1)CC2`
[out] 100 to 1000 nM

[in] // fetch IC50 given entry `CN(C)Cc1cc2c(cn1)CN(C(=O)c1c(O)cc(C#N)cc1OCc1ccccc1)C2`
[out] 1000 to 10000 nM

[in] Using the record for `CN1CC(Oc2ccc3c(c2)CN(C(=O)c2c(O)cc(C#N)cc2OCc2ccccc2)C3)C1` , state its measured IC50.
[out] 100 to 1000 nM

----------
molecular target: recombinant N-terminal MLH1 (residues 15-340) (Homo sapiens); construct: recombinant N-terminal MLH1 (residues 15-340); assay: Fluorescence Polarisation Assay for MLH1; details: 100 nM N-terminal MLH1, 5 nM probe compound
# Lookup of reported IC50 keyed by entry

Below: 5 compounds and their reported IC50.
COMPOUND	TARGET DESC	IC50
CN(C)C(=O)CNc1cccc2c1CN(C(=O)c1c(O)cc(C(F)F)cc1OCc1ccccc1)C2	recombinant N-terminal MLH1 (residues 15-340) (Homo sapiens)	100 to 1000 nM
CN1C[C@H](Nc2cccc3c2CN(C(=O)c2c(O)cc(C#N)cc2OCc2ccccc2)C3)CC1=O (single isomer, unassigned) [Example 10.8]	recombinant N-terminal MLH1 (residues 15-340) (Homo sapiens)	100 to 1000 nM
N#Cc1cc(O)c(C(=O)N2CCCc3cc(NC4CCOC4)ccc32)c(OCc2ccccc2)c1 (centres unmarked)	recombinant N-terminal MLH1 (residues 15-340) (Homo sapiens)	1000 to 10000 nM
O=C(c1c(O)cc(C(F)F)cc1OCc1ccccc1)N1CCc2cccc(NC3COC3)c2C1	recombinant N-terminal MLH1 (residues 15-340) (Homo sapiens)	100 to 1000 nM
Cn1cncc1-c1cc2c(c(N[C@H]3CCOC3)c1)CN(C(=O)c1c(O)cc(C(F)F)cc1OCc1ccccc1)C2	recombinant N-terminal MLH1 (residues 15-340) (Homo sapiens)	100 to 1000 nM

[in] Fill: IC50 (recombinant N-terminal MLH1 (residues 15-340) (Homo sapiens)) for this compound `O=C(c1c(O)cc(Cl)cc1OCc1ccccc1)N1Cc2cccc(N[C@@H]3CCOC3)c2C1`
[out] 1000 to 10000 nM

[in] # return IC50 for `O=C(c1c(O)cc(C(F)F)cc1OCc1ccccn1)N1Cc2cccc(N[C@H]3CCOC3)c2C1` , test system: recombinant N-terminal MLH1 (residues 15-340) (Homo sapiens)
[out] 100 to 1000 nM

[in] Report measured IC50 on recombinant N-terminal MLH1 (residues 15-340) (Homo sapiens); entry: `O=C(c1c(O)cc(C(F)F)cc1OCc1ccccc1)N1Cc2ccc(OCCN3CCOCC3)cc2C1`
[out] 100 to 1000 nM

[in] Under recombinant N-terminal MLH1 (residues 15-340) (Homo sapiens): report IC50 of `CN1CC[C@H](Nc2cccc3c2CN(C(=O)c2c(O)cc(C(F)F)cc2OCc2ccccc2)CC3)C1=O` .
[out] 100 to 1000 nM

[in] Provide measured IC50 on recombinant N-terminal MLH1 (residues 15-340) (Homo sapiens) for `CN(C)CCOc1cc2c(c(N[C@@H]3CCOC3)c1)CN(C(=O)c1c(O)cc(C(F)F)cc1OCc1ccccc1)C2` please.
[out] < 100 nM

[in] State IC50 on recombinant N-terminal MLH1 (residues 15-340) (Homo sapiens). Entry: `CN(C)CCOc1cc2c(c(N[C@H]3CCOC3)c1)CN(C(=O)c1c(O)cc(C(F)F)cc1OCc1ccccc1)C2`
[out] < 100 nM
